- Test summary: Life-span-increasing effect on irradiation of a lethal dose of radiation
- Format: in vivo, mouse (BDF1)
- Measurement parameters: day 15; 10 mice/group; 9 Gy X-ray; 0.1 mg/kg i.v. days 0, 4, 8; controls per series 8, 9, 5, 5, 7, 1

# Compound, Number of Surviving Mice (mice)
measured = [
    ("CCCCCCCCCCCCCCCCCCCCCCCC(=O)N[C@@H](CO[C@H]1O[C@H](CO)[C@H](O)[C@H](O)[C@H]1O)[C@H](O)[C@H](O)CCCCCCC [Compound 19]", 10),
    ("CCCCCCCCCCCCCCC[C@@H](O)[C@H](CO[C@H]1O[C@H](CO)[C@H](O)[C@H](O)[C@H]1O)NC(=O)CCCCCCCCC [Compound 6]", 6),
    ("CCCCCCCCCCCCC/C=C/[C@@H](O)[C@H](CO[C@H]1O[C@H](CO)[C@H](O)[C@H](O)[C@H]1O)NC(=O)CCCCCCCCCCCCCCCCC [Compound 15]", 9),
]
